Target: Integrin alpha-4/beta-1 (Homo sapiens, UniProt P05556+P13612)
Sequence (P05556 whole entry): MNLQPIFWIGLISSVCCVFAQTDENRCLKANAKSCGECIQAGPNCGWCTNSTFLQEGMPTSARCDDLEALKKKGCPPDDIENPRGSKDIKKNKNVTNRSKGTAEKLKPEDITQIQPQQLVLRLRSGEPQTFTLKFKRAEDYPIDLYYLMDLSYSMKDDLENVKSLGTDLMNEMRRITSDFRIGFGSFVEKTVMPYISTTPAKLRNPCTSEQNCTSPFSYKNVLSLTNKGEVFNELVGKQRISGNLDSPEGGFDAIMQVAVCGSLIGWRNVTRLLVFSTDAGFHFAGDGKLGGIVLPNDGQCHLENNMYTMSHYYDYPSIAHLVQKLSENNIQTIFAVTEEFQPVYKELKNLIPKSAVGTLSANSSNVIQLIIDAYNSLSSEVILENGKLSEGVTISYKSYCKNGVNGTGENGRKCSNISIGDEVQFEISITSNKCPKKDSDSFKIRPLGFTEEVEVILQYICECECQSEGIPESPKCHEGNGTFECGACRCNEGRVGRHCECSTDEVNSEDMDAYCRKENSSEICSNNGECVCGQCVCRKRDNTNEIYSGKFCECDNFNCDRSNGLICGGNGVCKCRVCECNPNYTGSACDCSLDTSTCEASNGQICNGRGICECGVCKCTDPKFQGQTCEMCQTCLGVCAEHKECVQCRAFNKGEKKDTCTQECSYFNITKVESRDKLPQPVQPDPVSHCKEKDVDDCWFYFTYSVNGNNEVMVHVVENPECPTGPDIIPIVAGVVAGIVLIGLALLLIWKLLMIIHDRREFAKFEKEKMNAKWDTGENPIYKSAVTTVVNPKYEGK
Sequence (P13612 whole entry): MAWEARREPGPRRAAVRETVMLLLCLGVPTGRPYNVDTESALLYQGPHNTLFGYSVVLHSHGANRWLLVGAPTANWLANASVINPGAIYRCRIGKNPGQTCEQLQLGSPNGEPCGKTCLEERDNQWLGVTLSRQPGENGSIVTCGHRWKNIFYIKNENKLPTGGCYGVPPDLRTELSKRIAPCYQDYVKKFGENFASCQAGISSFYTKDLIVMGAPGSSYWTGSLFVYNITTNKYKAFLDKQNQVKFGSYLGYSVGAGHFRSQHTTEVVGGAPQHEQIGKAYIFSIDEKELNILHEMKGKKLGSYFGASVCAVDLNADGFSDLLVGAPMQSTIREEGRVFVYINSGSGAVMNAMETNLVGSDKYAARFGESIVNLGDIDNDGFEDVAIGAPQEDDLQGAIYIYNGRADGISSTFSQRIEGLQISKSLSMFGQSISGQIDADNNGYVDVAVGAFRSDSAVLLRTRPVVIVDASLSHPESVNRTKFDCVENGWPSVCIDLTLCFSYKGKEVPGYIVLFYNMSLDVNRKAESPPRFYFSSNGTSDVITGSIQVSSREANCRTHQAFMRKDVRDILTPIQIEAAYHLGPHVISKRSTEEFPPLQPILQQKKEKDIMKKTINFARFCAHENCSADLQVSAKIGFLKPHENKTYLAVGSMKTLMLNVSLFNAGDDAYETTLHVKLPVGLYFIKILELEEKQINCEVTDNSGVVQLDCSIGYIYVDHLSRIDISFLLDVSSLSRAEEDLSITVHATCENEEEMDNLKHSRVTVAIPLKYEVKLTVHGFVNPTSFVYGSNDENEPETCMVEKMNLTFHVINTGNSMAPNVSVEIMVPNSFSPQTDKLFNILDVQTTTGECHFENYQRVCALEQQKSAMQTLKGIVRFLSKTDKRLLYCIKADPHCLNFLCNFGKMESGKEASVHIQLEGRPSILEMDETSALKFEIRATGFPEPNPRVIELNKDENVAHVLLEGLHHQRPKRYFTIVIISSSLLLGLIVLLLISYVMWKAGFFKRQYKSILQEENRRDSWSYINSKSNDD
Test: In vitro inhibition of binding of integrin alpha4-beta1 to immobilized VCAM-1 expressed on endothelial cell surface.
pIC50: −log10 of the molar value.
measured-quantity: pIC50

{"compound": "O=C(Nc1ccc(C[C@H](NC(=O)[C@@H]2C3CCC(CC3)N2S(=O)(=O)c2cccc3ccncc23)C(=O)O)cc1)c1cc(Cl)nc(Cl)c1", "target-or-system": "Integrin alpha-4/beta-1 (Homo sapiens, UniProt P05556+P13612)", "obs-value": 7.92}

(a) O=C(Nc1ccc(C[C@H](NC(=O)[C@H]2C3CCC(CC3)N2S(=O)(=O)c2ccccc2)C(=O)O)cc1)c1c(Cl)cccc1Cl
(b) O=C(Nc1ccc(C[C@H](NC(=O)C2C3CCC(CC3)N2S(=O)(=O)c2cc(Cl)c(Cl)s2)C(=O)O)cc1)c1cc(Cl)nc(Cl)c1 (stereo partly specified)
(c) O=C(Nc1ccc(C[C@H](NC(=O)[C@@H]2C3CCC(CC3)N2S(=O)(=O)c2cccs2)C(=O)O)cc1)c1cc(Cl)nc(Cl)c1
Ascending by pIC50, please. // ordering of labels required in reply
a, b, c
(a: 5.80, b: 7.16, c: 8.30)

From: ChEMBL document CHEMBL1147416
